Where these numbers come from: patent US9980943B2

What CMV-LACZ in Myoblasts (β-galactosidase activity relative to DMSO) was measured for each of the following?
system: β-galactosidase in CMV-LacZ C2C12 myoblasts; assay: CMV-LacZ secondary screen in C2C12 myoblasts (β-Gal stabilizing assay); assay type: cell-based, mouse; conditions: 1 uM; CMV-LacZ C2C12 myoblasts
Form rule: numeric answer, no unit written next to it.

stdin: Identify measured CMV-LACZ in Myoblasts (β-galactosidase activity relative to DMSO) corresponding to O=C1CCC(C(=O)N2CCSCC2)CN1Cc1ccc(Cl)cc1 (centres unmarked)
stdout: 0.9754

stdin: Supply recorded CMV-LACZ in Myoblasts (β-galactosidase activity relative to DMSO) for Cc1ccsc1-c1n[nH]c(=S)n1C1CCCCC1 here.
stdout: 0.9852

stdin: Return reported CMV-LACZ in Myoblasts (β-galactosidase activity relative to DMSO). Input molecule: CCN(C(=O)c1ccc(S(=O)(=O)N(C)C)cc1)C(C)C(=O)Nc1ccc(C)cc1 (centres unmarked)
stdout: 0.9857

stdin: Specify reported CMV-LACZ in Myoblasts (β-galactosidase activity relative to DMSO) for the molecule shown: CN1C(=O)N(CC(=O)N2CCN(S(=O)(=O)c3ccc(Cl)s3)CC2)C(=O)C12CCCCC2
stdout: 0.8713

stdin: Item COc1cccc(C(=O)COc2ccc3ccc(=O)oc3c2)c1 : provide CMV-LACZ in Myoblasts (β-galactosidase activity relative to DMSO)
stdout: 1.1214

stdin: Give the reported CMV-LACZ in Myoblasts (β-galactosidase activity relative to DMSO) for this molecule. CCOC(=O)c1nnn(-c2nonc2OC)c1-c1ccccc1
stdout: 0.8372

stdin: Look up and state reported CMV-LACZ in Myoblasts (β-galactosidase activity relative to DMSO) for COc1ccc(OC)c(S(=O)(=O)Nc2c(NC3CCCCC3)c3ccccc3oc2=O)c1
stdout: 1.2293

stdin: Please give measured CMV-LACZ in Myoblasts (β-galactosidase activity relative to DMSO) of the following entry: Cc1ccc2c(c1)/C(=C/c1ccco1)C(=O)N2
stdout: 1.0467

stdin: Provide only the value of recorded CMV-LACZ in Myoblasts (β-galactosidase activity relative to DMSO) for Cc1[nH]c(=O)[nH]c(=O)c1S(=O)(=O)Nc1ccc(F)cc1Cl
stdout: 0.9203

stdin: Answer with the recorded CMV-LACZ in Myoblasts (β-galactosidase activity relative to DMSO) for the molecule listed here: Cn1c(-c2ccccc2)cc2ccccc21
stdout: 0.7800

stdin: Give CMV-LACZ in Myoblasts (β-galactosidase activity relative to DMSO) for the following molecule: Cn1ccc(C(=O)Nc2cccnc2Cl)n1
stdout: 0.8808

stdin: Please supply the value of reported CMV-LACZ in Myoblasts (β-galactosidase activity relative to DMSO) for the item COc1ccc(NC(=O)C2(N(C(=O)Cn3nnnc3N)c3ccc(OC)cc3)CCCCC2)cc1
stdout: 1.1550

stdin: Please list CMV-LACZ in Myoblasts (β-galactosidase activity relative to DMSO) recorded for the molecule CCOn1c(=O)c(-c2ccccc2)[n+]([O-])c2ccccc21
stdout: 1.1569

stdin: Hello, please tell me recorded CMV-LACZ in Myoblasts (β-galactosidase activity relative to DMSO) for this one: CCN(CC)C(=O)c1sc2nc(-c3ccc(OC)cc3)cn2c1C
stdout: 0.9160

stdin: Given CCC(=O)c1ccc(OCC(O)CN2CC(C)OC(C)C2)cc1.O=C(O)C(=O)O (centres unmarked) , respond with its CMV-LACZ in Myoblasts (β-galactosidase activity relative to DMSO).
stdout: 1.0397

stdin: Identify measured CMV-LACZ in Myoblasts (β-galactosidase activity relative to DMSO) corresponding to O=C(CCc1ccccc1)c1nnc(-c2ccccc2)o1
stdout: 1.0643

stdin: Please look at this molecule and report its CMV-LACZ in Myoblasts (β-galactosidase activity relative to DMSO): Cc1nnc(-c2ccc(N3CCOCC3)c([N+](=O)[O-])c2)o1
stdout: 0.9184

stdin: Please give measured CMV-LACZ in Myoblasts (β-galactosidase activity relative to DMSO) of the following entry: N#Cc1ccc(Sc2nc3ccccc3[nH]2)cc1C#N
stdout: 0.9989

stdin: # return recorded CMV-LACZ in Myoblasts (β-galactosidase activity relative to DMSO) for input N#C/C(=C/c1ccc(N2CCOCC2)o1)C(=O)Nc1ccccc1
stdout: 1.2273

stdin: Indicate the recorded CMV-LACZ in Myoblasts (β-galactosidase activity relative to DMSO) value for this molecule: COc1ccccc1NS(=O)(=O)c1cc(NC(=O)c2ccc(Cl)nc2)ccc1N1CCCC1
stdout: 1.2206

stdin: # return recorded CMV-LACZ in Myoblasts (β-galactosidase activity relative to DMSO) for input COC(=O)Cn1c(=O)c2c(nc3n2CC(C)CN3Cc2ccccc2)n(C)c1=O (centres unmarked)
stdout: 1.0175

stdin: Tell me CMV-LACZ in Myoblasts (β-galactosidase activity relative to DMSO) reported for CC1(C)Cc2c(cnn2-c2cccc(F)c2)C(NC(=O)CCc2cnccn2)C1 (centres unmarked)
stdout: 1.0584

stdin: Using known records, supply CMV-LACZ in Myoblasts (β-galactosidase activity relative to DMSO) for Nc1ncnc(N2CCc3ccccc32)c1[N+](=O)[O-]
stdout: 0.7131

stdin: Let me know recorded CMV-LACZ in Myoblasts (β-galactosidase activity relative to DMSO) for CCOC(=O)C1(Cc2cccc(Cl)c2)CCCN(C(=O)CCSC)C1 (centres unmarked) , thanks.
stdout: 1.2745

stdin: Please give measured CMV-LACZ in Myoblasts (β-galactosidase activity relative to DMSO) of the following entry: Br.COc1ccc(C(=O)CN2CCCCC2)cc1
stdout: 0.9288

stdin: Dear colleague, please send me the reported CMV-LACZ in Myoblasts (β-galactosidase activity relative to DMSO) for Cc1nnc(SCC(=O)c2ccc(Br)cc2)s1 when you can.
stdout: 0.9383

---

tested on: β-galactosidase in CMV-LacZ C2C12 myoblasts; experiment: CMV-LacZ secondary screen in C2C12 myoblasts (β-Gal stabilizing assay); type: cell-based, mouse; settings: 10 uM; CMV-LacZ C2C12 myoblasts
measured-metric: CMV-LACZ in Myoblasts (β-galactosidase activity relative to DMSO)
Reply with the value as a number alone.

stdin: Provide CMV-LACZ in Myoblasts (β-galactosidase activity relative to DMSO), recorded with β-galactosidase in CMV-LacZ C2C12 myoblasts, of OC(c1nc2ccc(F)cc2[nH]1)C(O)c1nc2ccc(F)cc2[nH]1 (centres unmarked)
stdout: 0.9225

stdin: Enter measured CMV-LACZ in Myoblasts (β-galactosidase activity relative to DMSO), system β-galactosidase in CMV-LacZ C2C12 myoblasts, for the compound shown: COc1ccccc1C(=O)OCc1ccc2sc(C)nc2c1
stdout: 1.0189

stdin: State CMV-LACZ in Myoblasts (β-galactosidase activity relative to DMSO) (β-galactosidase in CMV-LacZ C2C12 myoblasts) of N#CC1=C2SCN(c3ccccc3)CN2C(=O)CC1c1cccs1 (centres unmarked) .
stdout: 0.9345

stdin: Look up β-galactosidase in CMV-LacZ C2C12 myoblasts data: CMV-LACZ in Myoblasts (β-galactosidase activity relative to DMSO) of CC(=O)Nc1ccc(-n2c(C)nc(=O)c(-c3ccccc3)c2C)cc1 , then report it.
stdout: 1.0163

stdin: Enter recorded CMV-LACZ in Myoblasts (β-galactosidase activity relative to DMSO) with β-galactosidase in CMV-LacZ C2C12 myoblasts for Br.COc1ccc(C(=O)CN2CCCCC2)cc1 here.
stdout: 1.0417

stdin: Fill in CMV-LACZ in Myoblasts (β-galactosidase activity relative to DMSO) for CCOc1ccccc1NC(=O)COC(=O)CNS(=O)(=O)c1ccc(C)cc1 tested with β-galactosidase in CMV-LacZ C2C12 myoblasts.
stdout: 0.8148

stdin: Quote CMV-LACZ in Myoblasts (β-galactosidase activity relative to DMSO) with test system β-galactosidase in CMV-LacZ C2C12 myoblasts for COC(=O)Cn1c(=O)c2c(nc3n2CC(C)CN3Cc2ccccc2)n(C)c1=O (centres unmarked)
stdout: 1.0661

stdin: Find the measured CMV-LACZ in Myoblasts (β-galactosidase activity relative to DMSO) of CCCCNc1nnc(Cc2ccc(Cl)cc2)c(=O)[nH]1 with β-galactosidase in CMV-LacZ C2C12 myoblasts as test system.
stdout: 0.8628

---

test system: α7 integrin (LacZ reporter in α7+/LacZ myotubes); experiment: Myotube α7 integrin FDG assay (Burkin assay in myotubes, 96-well); type: cell-based, mouse; details: myotubes, 1 uM
measured-metric: Burkin Assay in Myotubes, α7 integrin LacZ reporter signal relative to DMSO
Kindly provide the number alone.

stdin: Tell us which Burkin Assay in Myotubes, α7 integrin LacZ reporter signal relative to DMSO value is on record for O=C(COC(=O)Cn1cnc2ccccc21)Nc1cccc([N+](=O)[O-])c1
stdout: 0.9951

stdin: State its Burkin Assay in Myotubes, α7 integrin LacZ reporter signal relative to DMSO: COc1ccc(OC)c(NC(=O)CN2CCC(NC(=O)c3ccccc3C)CC2)c1
stdout: 1.023

stdin: Supply Burkin Assay in Myotubes, α7 integrin LacZ reporter signal relative to DMSO value. Item: O=C1CCC(C(=O)N2CCSCC2)CN1Cc1ccc(Cl)cc1 (stereo not drawn)
stdout: 1.168

stdin: Return Burkin Assay in Myotubes, α7 integrin LacZ reporter signal relative to DMSO (reported value) for this molecule: COc1ccc(OC)c(S(=O)(=O)Nc2c(NC3CCCCC3)c3ccccc3oc2=O)c1
stdout: 0.9463

stdin: For O=C(CCc1ccccc1)c1nnc(-c2ccccc2)o1 , write its Burkin Assay in Myotubes, α7 integrin LacZ reporter signal relative to DMSO.
stdout: 1.105

stdin: Complete the entry with Burkin Assay in Myotubes, α7 integrin LacZ reporter signal relative to DMSO for CCC(CC)C(=O)Nc1c(C(=O)N2CCN(c3ccccc3)CC2)oc2ccccc12
stdout: 0.9502

stdin: Item Cc1cc2ccccc2n2c(SCC(=O)NCc3cccs3)nnc12 : provide Burkin Assay in Myotubes, α7 integrin LacZ reporter signal relative to DMSO
stdout: 0.8953

stdin: Look up and state reported Burkin Assay in Myotubes, α7 integrin LacZ reporter signal relative to DMSO for Cc1ccc2c(c1)/C(=C/c1ccco1)C(=O)N2
stdout: 0.9939

stdin: Give recorded Burkin Assay in Myotubes, α7 integrin LacZ reporter signal relative to DMSO. OC(c1nc2ccc(F)cc2[nH]1)C(O)c1nc2ccc(F)cc2[nH]1 (stereo not drawn)
stdout: 1.0792

stdin: For the molecule CC(C)(C)c1ccc(C(=O)OCC(=O)Nc2sc3c(c2C#N)CCC3)cc1 , give its reported Burkin Assay in Myotubes, α7 integrin LacZ reporter signal relative to DMSO.
stdout: 0.9664

stdin: Item CC1(C)Cc2c(c(N3CCOCC3)nc3sc(C(=O)Nc4ccccc4)c(N)c23)CO1 : provide Burkin Assay in Myotubes, α7 integrin LacZ reporter signal relative to DMSO
stdout: 1.143

stdin: Give the reported value of Burkin Assay in Myotubes, α7 integrin LacZ reporter signal relative to DMSO for this record: Cc1cc(C)cc(OCC(=O)N/N=C/c2ccccn2)c1
stdout: 1.163

stdin: Give Burkin Assay in Myotubes, α7 integrin LacZ reporter signal relative to DMSO for the following molecule: CCCS(=O)(=O)c1nc(S(=O)(=O)c2ccc(C)cc2)c(N2CCCC2)s1
stdout: 1.037

stdin: Hello, please tell me recorded Burkin Assay in Myotubes, α7 integrin LacZ reporter signal relative to DMSO for this one: CC1CCCCC12NC(=O)N(CC(=O)OCc1cccc(F)c1)C2=O (stereo not drawn)
stdout: 1.177

stdin: Let me know recorded Burkin Assay in Myotubes, α7 integrin LacZ reporter signal relative to DMSO for O=C(Nc1ccccc1OC(=O)c1ccc(Cl)cc1)c1ccc(Cl)cc1 , thanks.
stdout: 1.007

stdin: Kindly indicate its recorded Burkin Assay in Myotubes, α7 integrin LacZ reporter signal relative to DMSO. Item: COCCSc1ccccc1C(=O)Nc1cc(C)cc(C)c1
stdout: 1.071

stdin: Give a short answer stating reported Burkin Assay in Myotubes, α7 integrin LacZ reporter signal relative to DMSO for N#C/C(=C/c1ccc(N2CCOCC2)o1)C(=O)Nc1ccccc1 .
stdout: 1.083

stdin: Quick one: give measured Burkin Assay in Myotubes, α7 integrin LacZ reporter signal relative to DMSO for CCCCN(CC)Cc1ccc(CNC(=S)Nc2ccccc2F)o1
stdout: 1.035

stdin: Determine from records and report Burkin Assay in Myotubes, α7 integrin LacZ reporter signal relative to DMSO for Cc1cc(C(=O)Nc2cccc3ccccc23)c(C)o1
stdout: 0.9889

stdin: Return Burkin Assay in Myotubes, α7 integrin LacZ reporter signal relative to DMSO for the following molecule: NC(=O)c1sc2nc3c(cc2c1N)CCC3
stdout: 0.8512

stdin: Quote Burkin Assay in Myotubes, α7 integrin LacZ reporter signal relative to DMSO reported for CCOc1ccc2nc(Cl)sc2c1 please.
stdout: 0.9802

stdin: Kindly indicate its recorded Burkin Assay in Myotubes, α7 integrin LacZ reporter signal relative to DMSO. Item: Cc1ccc(Cn2nnc3c(=O)[nH]c(C4CCCN(C(=O)c5ccco5)C4)nc32)cc1 (stereo not drawn)
stdout: 0.8386

stdin: Supply reported Burkin Assay in Myotubes, α7 integrin LacZ reporter signal relative to DMSO belonging to this molecule: O=C(Nc1ccc(Oc2cccnc2)cc1)c1ccccc1Cl
stdout: 0.8646

stdin: Supply recorded Burkin Assay in Myotubes, α7 integrin LacZ reporter signal relative to DMSO for c1ccc(-c2nn[nH]n2)nc1 here.
stdout: 0.9481
